Below are pKi values for Urokinase-type plasminogen activator (Homo sapiens, UniProt P00749) collected from several publications.
Answers are plain numbers, as −log10 of the molar value.

{"MOLECULE": "CCOc1cccc(NC(=O)c2ccc3cc(C(=N)N)ccc3c2)c1", "ASSAYED SYSTEM": "Urokinase-type plasminogen activator (Homo sapiens, UniProt P00749)", "READOUT KIND": "pKi", "REPORTED": 7.09}

Hi, could you look up pKi for each item in my list?
1. N=C(N)c1ccc2ccccc2c1
2. N=C(N)c1ccc2cc(C(=O)Nc3ccccc3)cc(-c3ccoc3)c2c1
3. CSCC[C@@H]1NC(=O)[C@H]([C@@H](C)O)NC(=O)[C@H](Cc2ccccc2)NC(=O)[C@H](CCCCN)NC(=O)[C@@H]2CSCc3cc(cc(c3)CSC[C@@H](C(=O)NCC(=O)O)NC1=O)CSC[C@H](NC(=O)[C@H](C)N)C(=O)N[C@@H](CCCNC(=N)N)C(=O)NCC(=O)NCC(=O)N2
4. CN(C)CCNC(=O)C(Oc1cccc2sc(C(=N)N)cc12)c1ccccc1 (configuration not stated)
5. N=C(N)NCCC1CCN(C(=O)[C@H](Cc2cccc(C(=N)N)c2)NS(=O)(=O)c2ccc(Oc3ccccc3)cc2)CC1
6. CNC(=O)CCCC1CCN(C(=O)[C@H](Cc2cccc(C(=N)N)c2)NS(=O)(=O)c2cccc(NC(=O)CCN)c2)CC1
7. CSc1sc(C(=N)N)cc1-c1csc(Nc2ccc(C)cc2Br)n1
8. C[C@H](N)C(=O)N[C@H]1CSCc2cc3cc(c2)CSC[C@@H](C(=O)NCC(=O)O)NC(=O)[C@@H]2CCCN2C(=O)[C@H](Cc2ccccc2)NC(=O)[C@H](CCCNC(=N)N)NC(=O)[C@H](C)NC(=O)[C@H]([C@@H](C)O)NC(=O)[C@H](CSC3)NC(=O)[C@H](CC(=O)O)NC(=O)[C@H](CO)NC(=O)[C@H](Cc2cnc[nH]2)NC(=O)[C@H](CCCCN)NC1=O

[5.23, 7.04, 4.63, 5.67, 5.64, 5.48, 6.37, 4.57]

# per-item lookup of pKi; items listed below
1. N=C(N)c1ccc2[nH]c(-c3cc(CC(=O)O)cc(Br)c3O)c(Cc3ccccc3)c2c1
2. CCS(=O)(=O)c1cc(-c2cc(C(=O)Nc3cccc(OC4CCCC4)c3)cc3ccc(C(=N)N)cc23)co1
3. COC(=O)C(C)Oc1cccc2sc(C(=N)N)cc12 (configuration not stated)
4. N=C(N)c1ccc(CNC(=O)[C@H](CO)NC(=O)[C@@H](CO)NS(=O)(=O)Cc2ccccc2)cc1

1. 6.37
2. 8.68
3. 5.64
4. 7.70

Given the entry "Nc1ccc2ccc(C(=O)NCc3ccccc3)cc2n1" , report its measured pKi. 5.00
